Source of measurements: patent US20200079844A1

- system_tested: T1, human TNFα (human, UniProt P01375 77-233)
- T1 construct: Biotinylated in the ELISAs, amine-coupled to CM5 in Biacore; also called human TNF-alpha; hTNF-alpha
measurement_kind: koff

>  <binder>
PMP3G2 (VHH, Tested as unpurified protein) VHH: AVQLVESGGGLVQPGDSLRLSCAASGRTFSDYSGYTYTVGWFRQAPGKEREFVARIYWSSGNTYYADSVKGRFTISRDIAKNTVDLLMNNLEPEDTAVYYCAARDGIPTSRSVESYNYWGQGTQVTVSS

>  <measurement_kind>
koff

>  <result>
0.0109 s⁻¹

$$$$
>  <binder>
PMP1H2 (VHH, Tested as unpurified protein) VHH: QVKLEESGGGLVQPGDSLRLSCAASGRTFSDYSGYTYTVGWFRQAPGKEREFVARIYWSSGNTYYADSVKGRFTISRDIAKNTVDLLMNNLEPEDTAVYYCAARDGIPTSRSVESYNYWGQGTQVTVSS

>  <measurement_kind>
koff

>  <result>
0.00365 s⁻¹

$$$$
>  <binder>
PMP1G5 (TNF2) (VHH, also called WT TNF2; not shown: C-terminal c-myc tag and (His)6 tag coded by vector pAX051) VHH: QVQLVESGGGLVQAGGSLRLSCAASGRTFSEPSGYTYTIGWFRQAPGKEREFVARIYWSSGLTYYADSVKGRFTISRDIAKNTVDLLMNSLKPEDTAVYYCAARDGIPTSRSVGSYNYWGQGTQVTVSS

>  <measurement_kind>
koff

>  <result>
0.000359 s⁻¹

$$$$
